Experiment: physchem
Settings: kinetic from dmso stock
solubility kinetic listing for selected molecules.
PROPERTY_MEASURED: solubility kinetic (µM)

MOLECULE | READOUT_RELATION | RECORDED_VALUE
Cc1cc(CCCOc2c(C)cc(-c3noc(C(F)(F)F)n3)cc2C)on1 | = | 18
Cc1cc(-c2noc(C(F)(F)F)n2)ccc1O[C@H]1CCN(c2cc(C(=O)N(C)C)no2)C1 | < | 10
C#CCc1ccc(OCCCc2cc(C(=O)N(C)C)no2)cc1 | = | 198
CN(C)C(=O)c1cc(CCCn2ccc3cc(-c4noc(C(F)(F)F)n4)ncc32)on1 | = | 30
Cc1cc(-c2noc(C(F)(F)F)n2)ccc1OCCCc1cc(C(=O)N(C)C)no1 [Compound 2, CP-11526092, reference compound] | = | 9
CN(C)C(=O)c1cc(CCCn2ccc3cc(-c4noc(C(F)(F)F)n4)cnc32)on1 | = | 28
Cc1cc(-c2noc(C(F)(F)F)n2)ccc1O[C@@H]1CCN(c2cc(C(=O)N(C)C)no2)C1 | < | 10
